# System: Tyrosyl-DNA phosphodiesterase 1 (Homo sapiens, UniProt Q9NUW8, H493R)
# Sequence (Q9NUW8 whole entry H493R): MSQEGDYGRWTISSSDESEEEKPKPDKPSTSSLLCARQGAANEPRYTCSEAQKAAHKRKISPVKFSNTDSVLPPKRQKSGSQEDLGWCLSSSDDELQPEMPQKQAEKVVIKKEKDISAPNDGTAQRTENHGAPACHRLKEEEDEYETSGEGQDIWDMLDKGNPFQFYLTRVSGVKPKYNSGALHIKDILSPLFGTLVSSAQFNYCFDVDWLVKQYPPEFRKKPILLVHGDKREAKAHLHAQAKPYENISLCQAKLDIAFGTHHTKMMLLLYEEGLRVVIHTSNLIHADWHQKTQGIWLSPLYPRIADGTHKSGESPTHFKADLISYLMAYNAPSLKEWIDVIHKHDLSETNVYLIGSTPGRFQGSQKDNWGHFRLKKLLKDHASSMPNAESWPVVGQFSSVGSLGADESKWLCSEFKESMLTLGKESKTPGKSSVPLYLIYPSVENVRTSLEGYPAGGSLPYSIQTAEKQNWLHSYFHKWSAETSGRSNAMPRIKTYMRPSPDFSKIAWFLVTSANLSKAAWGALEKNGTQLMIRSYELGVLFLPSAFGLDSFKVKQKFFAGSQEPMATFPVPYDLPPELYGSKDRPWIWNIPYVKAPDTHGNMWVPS
# Assay Remarks: Inhibition of recombinant TDP1 H493R mutant (unknown origin) using 5'-(5,6 FAM-aac gtc agg gtc ttc c-BHQ1)-3' as substrate measured every 55 secs for 8 mins by fluorescence based assay
pIC50: −log10 of the molar value.
Endpoint Label: pIC50

{"columns": ["Molecule", "Measurement"],
 "data": [
  ["Cc1ccc(NC(=O)NC[C@]2(C)CCC[C@]3(C)c4ccc(C(C)C)cc4CC[C@@H]23)cc1NC(=O)NC[C@]1(C)CCC[C@]2(C)c3ccc(C(C)C)cc3CC[C@@H]12", 5.27]
]}

1: CC(C)c1ccc2c(c1)CC[C@H]1[C@](C)(CNC(=O)Nc3ccc(Cl)cc3)CCC[C@]21C
2: CC(C)c1ccc2c(c1)CC[C@H]1[C@](C)(CNC(=O)NCC3(C)CC(NC(=O)NC[C@]4(C)CCC[C@]5(C)c6ccc(C(C)C)cc6CC[C@@H]45)CC(C)(C)C3)CCC[C@]21C (some centres not stated)
Lookup: Select one: 1 or 2 . Criterion: greater recorded pIC50. # answer = label of selected item
Found: 2
(2: 5.27, 1: 4.47)

---

Reported Activity values are given for each entry in this list.
# Test system: SNB-19
# Assay Remarks: Potentiation of TMZ-induced cytotoxicity against human SNB19 cells assessed as cell viability at 75 uM incubated for 72 hrs in presence of 2000 uM TMZ by MTT assay (Rvb =100%)
# Format: functional
Respond with the bare value in %.

The examples below pair each entry with its known result.
{"columns": ["Molecule", "Activity (%)"],
 "data": [
  ["CC(C)c1ccc2c(c1)CC[C@H]1[C@](C)(CNC(=O)NCCCCCCNC(=O)NC[C@]3(C)CCC[C@]4(C)c5ccc(C(C)C)cc5CC[C@@H]34)CCC[C@]21C", 70.3],
  ["Cc1ccc(NC(=O)NC[C@]2(C)CCC[C@]3(C)c4ccc(C(C)C)cc4CC[C@@H]23)cc1NC(=O)NC[C@]1(C)CCC[C@]2(C)c3ccc(C(C)C)cc3CC[C@@H]12", 84.4],
  ["CC(C)c1ccc2c(c1)CC[C@H]1[C@](C)(CNC(=O)NCC3(C)CC(NC(=O)NC[C@]4(C)CCC[C@]5(C)c6ccc(C(C)C)cc6CC[C@@H]45)CC(C)(C)C3)CCC[C@]21C (some centres undefined)", 89]
]}

Lookup: Return reported Activity; argument: CC(C)c1ccc2c(c1)CC[C@H]1[C@](C)(CNC(=O)NC34CC5CC(CC(C5)C3)C4)CCC[C@]21C
Found: 63.7

---

# System: T98G
# Assay Remarks: Cytotoxicity activity against human T98G cells assessed as reduction in cell viability incubated for 72 hrs by MTT assay
# Assay type: cell-based
Endpoint Label: IC50

{"columns": ["Molecule", "IC50"],
 "data": [
  ["CCNC(=S)NC[C@]1(C)CCC[C@]2(C)c3ccc(C(C)C)cc3CC[C@@H]12", "> 100 µM"],
  ["CCNC(=O)NC[C@]1(C)CCC[C@]2(C)c3ccc(C(C)C)cc3CC[C@@H]12", "> 100 µM"],
  ["CC(C)c1ccc2c(c1)CC[C@H]1[C@](C)(CNC(=O)NCC3(C)CC(NC(=O)NC[C@]4(C)CCC[C@]5(C)c6ccc(C(C)C)cc6CC[C@@H]45)CC(C)(C)C3)CCC[C@]21C (some centres undefined)", "> 100 µM"]
]}

Okay, now this molecule:
Lookup: Return reported IC50; argument: CC(C)c1ccc2c(c1)CC[C@H]1[C@](C)(CNC(=O)Nc3ccc(Cl)cc3)CCC[C@]21C
Found: 21.2 µM

---

# Tested on: SNB-19
# Assay Remarks: Potentiation of TMZ-induced cytotoxicity against human SNB19 cells assessed as reduction in cell viability at 75 uM incubated for 72 hrs in presence of 2000 uM TMZ by MTT assay relative to TMZ alone
# Assay type: functional
Endpoint Label: fold change (FC)
I only need the number, thanks.

The examples below pair each entry with its known result.
{"columns": ["Compound", "fold change (FC)"],
 "data": [
  ["CC(C)c1ccc2c(c1)CC[C@H]1[C@](C)(CNC(=O)NCC3(C)CC(NC(=O)NC[C@]4(C)CCC[C@]5(C)c6ccc(C(C)C)cc6CC[C@@H]45)CC(C)(C)C3)CCC[C@]21C (some centres undefined)", 1.1],
  ["CC(C)c1ccc2c(c1)CC[C@H]1[C@](C)(CNC(=O)NC34CC5CC(CC(C5)C3)C4)CCC[C@]21C", 1.6]
]}

Lookup: Return reported fold change (FC); argument: CC(C)c1ccc2c(c1)CC[C@H]1[C@](C)(CNC(=O)NCCCCCCNC(=O)NC[C@]3(C)CCC[C@]4(C)c5ccc(C(C)C)cc5CC[C@@H]34)CCC[C@]21C
Found: 1.4

Lookup: Return reported fold change (FC); argument: Cc1ccc(NC(=O)NC[C@]2(C)CCC[C@]3(C)c4ccc(C(C)C)cc4CC[C@@H]23)cc1NC(=O)NC[C@]1(C)CCC[C@]2(C)c3ccc(C(C)C)cc3CC[C@@H]12
Found: 1.2

---

# System: Tyrosyl-DNA phosphodiesterase 1 (Homo sapiens, UniProt Q9NUW8, H493R)
# Assay Remarks: Inhibition of recombinant TDP1 H493R mutant (unknown origin) using 5'-(5,6 FAM-aac gtc agg gtc ttc c-BHQ1)-3' as substrate measured every 55 secs for 8 mins by fluorescence based assay
pIC50: −log10 of the molar value.
Endpoint Label: pIC50

The examples below pair each entry with its known result.
{"columns": ["Smiles Repr", "pIC50"],
 "data": [
  ["CC(C)c1ccc2c(c1)CC[C@H]1[C@](C)(CNC(=O)NC34CC5CC(CC(C5)C3)C4)CCC[C@]21C", 4.71],
  ["CC(C)c1ccc2c(c1)CC[C@H]1[C@](C)(CNC(=O)Nc3ccccc3)CCC[C@]21C", 4.62]
]}

I: CC(C)c1ccc2c(c1)CC[C@H]1[C@](C)(CNC(=S)Nc3ccccc3)CCC[C@]21C
II: CC(C)c1ccc2c(c1)CC[C@H]1[C@](C)(CNC(=O)NC3CCCCC3)CCC[C@]21C
Lookup: For the pair I and II , which entry has the numerically smaller recorded pIC50? # answer = label of selected item
Found: II

---

Reported pIC50 values are given for each entry in this list.
# Tested on: MCF7
# Assay Remarks: Cytotoxicity activity against human MCF7 cells assessed as reduction in cell viability incubated for 72 hrs by MTT assay
# Assay type: cell-based
# Protocol Conditions: MCF7, 72 h
pIC50: −log10 of the molar value.

{"columns": ["Compound", "Measurement"],
 "data": [
  ["CC(C)c1ccc2c(c1)CC[C@H]1[C@](C)(CNC(=O)NCCCCCCNC(=O)NC[C@]3(C)CCC[C@]4(C)c5ccc(C(C)C)cc5CC[C@@H]34)CCC[C@]21C", "< 4.00"],
  ["CC(C)c1ccc2c(c1)CC[C@H]1[C@](C)(CNC(=O)NCC3(C)CC(NC(=O)NC[C@]4(C)CCC[C@]5(C)c6ccc(C(C)C)cc6CC[C@@H]45)CC(C)(C)C3)CCC[C@]21C (stereo partly drawn)", "< 4.00"],
  ["CC(C)c1ccc2c(c1)CC[C@H]1[C@](C)(CNC(=O)Nc3ccc(Cl)cc3)CCC[C@]21C", 4.28],
  ["C=CCNC(=S)NC[C@]1(C)CCC[C@]2(C)c3ccc(C(C)C)cc3CC[C@@H]12", 5.00],
  ["CC(C)c1ccc2c(c1)CC[C@H]1[C@](C)(CNC(=O)NC3CCCCC3)CCC[C@]21C", "< 4.00"]
]}

Lookup: Return reported pIC50; argument: CC(C)c1ccc2c(c1)CC[C@H]1[C@](C)(CNC(=S)Nc3ccccc3)CCC[C@]21C
Found: 4.59

Lookup: Return reported pIC50; argument: CC(C)c1ccc2c(c1)CC[C@H]1[C@](C)(CNC(=O)Nc3ccccc3)CCC[C@]21C
Found: < 4.00

Lookup: Return reported pIC50; argument: Cc1ccc(NC(=O)NC[C@]2(C)CCC[C@]3(C)c4ccc(C(C)C)cc4CC[C@@H]23)cc1NC(=O)NC[C@]1(C)CCC[C@]2(C)c3ccc(C(C)C)cc3CC[C@@H]12
Found: < 4.00

---

# System: Poly [ADP-ribose] polymerase 2 (Homo sapiens) (UniProt Q9UGN5)
# Sequence (Q9UGN5 whole entry): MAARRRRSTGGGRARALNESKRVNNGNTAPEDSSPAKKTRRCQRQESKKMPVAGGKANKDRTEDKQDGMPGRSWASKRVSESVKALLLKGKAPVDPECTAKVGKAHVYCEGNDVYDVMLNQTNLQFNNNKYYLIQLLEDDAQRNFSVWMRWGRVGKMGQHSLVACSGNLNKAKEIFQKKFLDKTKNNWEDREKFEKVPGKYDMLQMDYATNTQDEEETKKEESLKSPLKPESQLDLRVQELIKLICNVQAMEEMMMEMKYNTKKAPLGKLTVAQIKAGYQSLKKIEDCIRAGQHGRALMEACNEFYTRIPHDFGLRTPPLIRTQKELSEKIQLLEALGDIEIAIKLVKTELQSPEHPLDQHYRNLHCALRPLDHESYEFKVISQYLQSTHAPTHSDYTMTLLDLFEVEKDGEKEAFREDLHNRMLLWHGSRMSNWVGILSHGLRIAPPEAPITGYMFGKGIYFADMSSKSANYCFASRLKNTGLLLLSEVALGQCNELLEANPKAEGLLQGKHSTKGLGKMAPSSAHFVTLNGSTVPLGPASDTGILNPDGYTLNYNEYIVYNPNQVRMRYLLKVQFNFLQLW
# Assay Remarks: Inhibition of PARP2 (unknown origin) assessed as residual activity at 100 uM relative to control
Endpoint Label: Activity (%)

{"columns": ["Compound", "Activity, %"],
 "data": [
  ["CC(C)c1ccc2c(c1)CC[C@H]1[C@](C)(CNC(=O)NCCCCCCNC(=O)NC[C@]3(C)CCC[C@]4(C)c5ccc(C(C)C)cc5CC[C@@H]34)CCC[C@]21C", 142],
  ["CC(C)c1ccc2c(c1)CC[C@H]1[C@](C)(CNC(=O)Nc3ccc(Cl)cc3)CCC[C@]21C", 93],
  ["CCNC(=S)NC[C@]1(C)CCC[C@]2(C)c3ccc(C(C)C)cc3CC[C@@H]12", 116],
  ["CC(C)c1ccc2c(c1)CC[C@H]1[C@](C)(CNC(=S)Nc3ccccc3)CCC[C@]21C", 116],
  ["CC(C)c1ccc2c(c1)CC[C@H]1[C@](C)(CNC(=O)NC34CC5CC(CC(C5)C3)C4)CCC[C@]21C", 107],
  ["CCNC(=O)NC[C@]1(C)CCC[C@]2(C)c3ccc(C(C)C)cc3CC[C@@H]12", 116],
  ["Cc1ccc(NC(=O)NC[C@]2(C)CCC[C@]3(C)c4ccc(C(C)C)cc4CC[C@@H]23)cc1NC(=O)NC[C@]1(C)CCC[C@]2(C)c3ccc(C(C)C)cc3CC[C@@H]12", 135],
  ["CNC(=S)NC[C@]1(C)CCC[C@]2(C)c3ccc(C(C)C)cc3CC[C@@H]12", 114],
  ["CC(C)c1ccc2c(c1)CC[C@H]1[C@](C)(CNC(=O)NC3CCCCC3)CCC[C@]21C", 99],
  ["CC(C)c1ccc2c(c1)CC[C@H]1[C@](C)(CNC(=O)NCC3(C)CC(NC(=O)NC[C@]4(C)CCC[C@]5(C)c6ccc(C(C)C)cc6CC[C@@H]45)CC(C)(C)C3)CCC[C@]21C (some centres not stated)", 94],
  ["C=CCNC(=S)NC[C@]1(C)CCC[C@]2(C)c3ccc(C(C)C)cc3CC[C@@H]12", 98],
  ["CC(C)c1ccc2c(c1)CC[C@H]1[C@](C)(CNC(=O)Nc3ccccc3)CCC[C@]21C", 129]
]}
